The measured values listed here are drawn from PubChem BioAssay AID248.

# System: L1210 leukemia ip in BDF1 mice, survival T/C
# Procedure details: NCI In Vivo Anticancer Drug Screen. Data for tumor model L1210 Leukemia (intraperitoneal) in B6D2F1 (BDF1) mice
# Study conditions: endpoint: mean survival time; dose: 150.0 mg/kg/injection; schedule: Q01DX001 (ip); vehicle: saline; higher = longer survival
Inconclusive results and toxic doses are left out.
Readout: T/C

molecule=CCOP(=O)(OCC)OCCSCC result="102 % of control"

May I ask what T/C has been recorded for `CCOC(=O)c1ccc2ccccc2n1` ? 96 % of control

May I ask what T/C has been recorded for O=C(Nc1ccccc1)C(CCCN1C(=O)c2ccccc2C1=O)N1C(=O)c2ccccc2C1=O (configuration not stated) ? 104 % of control

May I ask what T/C has been recorded for `COc1cc(N)c2c(c1O)CN(C)CC2` ? 100 % of control

----------
The following molecules are listed with their measured T/C values.
# System: L1210 leukemia ip in BDF1 mice, survival T/C
# Procedure details: NCI In Vivo Anticancer Drug Screen. Data for tumor model L1210 Leukemia (intraperitoneal) in B6D2F1 (BDF1) mice
# Study conditions: endpoint: mean survival time; dose: 25.0 mg/kg/injection; schedule: Q01DX009 (ip); vehicle: saline with Tween-80; higher = longer survival
Toxic doses and inconclusive results are not listed.

molecule="O=S1(=O)CCC2CCCCC2C1 (stereo not drawn)" result="90 % of control"
molecule=Nc1nc2nc3c(nc2c(=O)[nH]1)CN(c1ccc(C(=O)O)cc1)C3=O result="94 % of control"
molecule=N#Cc1c(F)c(F)c(C(F)(F)F)c(F)c1F result="93 % of control"
molecule="CCOC(Cl)CCl (stereo not drawn)" result="108 % of control"
molecule=O=C(OCCCl)OCCCl result="98 % of control"

Please examine the following record next.
Field: T/C (L1210 leukemia ip in BDF1 mice, survival T/C). Entry: COC1(c2ccc(Cl)cc2)OC(=O)C(c2ccccc2)=C1Cc1ccccc1 (stereo not drawn) 89 % of control

----------
The following compounds are listed with their measured T/C values.
# Test system: L1210 leukemia ip in BDF1 mice, survival T/C
# Procedure details: NCI In Vivo Anticancer Drug Screen. Data for tumor model L1210 Leukemia (intraperitoneal) in B6D2F1 (BDF1) mice
# Study conditions: endpoint: mean survival time; dose: 100.0 mg/kg/injection; schedule: Q04DX002 (ip); vehicle: Klucel (hydroxypropylcellulose) (HPC); higher = longer survival
Toxic doses and inconclusive results are not listed.

compound=O=C1OCC/C1=C\NCCCCCCCCN/C=C1\CCOC1=O result="97 % of control"
compound=Fc1ccc(NC(=S)Nc2ccccc2)cc1 result="108 % of control"
compound="NC(CCSCc1ccccc1)C(=O)O (stereo not drawn)" result="113 % of control"
compound="NCC1C2CC3CC(C2)CC1C3 (stereo not drawn)" result="98 % of control"
compound=CCOC(=O)CNc1ccc(Br)cc1 result="108 % of control"
compound="COC1(OC)C2CCC1C(OS(=O)(=O)c1ccc(C)cc1)C2 (stereo not drawn)" result="103 % of control"

Field: T/C (L1210 leukemia ip in BDF1 mice, survival T/C). Entry: `COC(=O)C(=O)CC(=O)c1ccccc1` 116 % of control

Field: T/C (L1210 leukemia ip in BDF1 mice, survival T/C). Entry: `CCP(C)(C)=S` 108 % of control

Field: T/C (L1210 leukemia ip in BDF1 mice, survival T/C). Entry: `CCC/C(=N/NC(=O)c1ccccc1)c1ccccc1` 110 % of control

Field: T/C (L1210 leukemia ip in BDF1 mice, survival T/C). Entry: `CCCNC(=O)Nc1ccc(OCC)cc1` 105 % of control
